Tested on: CEM cells HIV-1 protection, formazan growth assay
Assay explanation: NCI AIDS Antiviral Assay
Condition summary: measured here: growth of uninfected CEM cells
Catalogue of pIC50 values
Value format note: pIC50 is -log10 of concentration (mol/L); just state the number.

Examples with their reported pIC50 follow.
# Compound, Recorded result
records = [
    ("C=CCC1(C)CCCN(Cc2ccccc2)C1=O (stereo unspecified)", 3.98),
    ("COc1ccc2c(c1OC)C(C=C(c1ccccc1)c1ccccc1)CN(C)C2 (stereo unspecified)", 4.80),
    ("Cn1cnc([N+](=O)[O-])c1Sc1nc2ccccc2s1", 5.49),
]

Please look at the following compound next.
For the compound O=C(/C=C/c1ccncc1)c1ccccc1 , what pIC50 is on record?
5.22
